Exercise: state measured CC50 at 3 days for each of the compounds provided.
assay: CC50 assay (CellTiter-Glo) in Huh-7 HCV replicon cells; format: cell-based, human; details: human, 3 days incubation, CellTiter-Glo readout

Examples with their reported CC50 at 3 days follow.
# COMPOUND, CC50 at 3 days
rows = [
    ("N#CC1(NC(=O)c2ccc(-c3ccc4nc(NCc5ccc(S(N)(=O)=O)cc5)nc(NCC(F)(F)F)c4n3)cc2)CC1", "> 25 µM"),
    ("CCOc1nc(NCc2ccc(F)cc2)nc2ccc(-c3ccc(NC(=O)C4CC4)nc3)nc12", "5 to 25 µM"),
    ("NS(=O)(=O)c1ccc(CNc2nc(Nc3cccc(F)c3)c3nc(-c4ccc(F)cc4)ccc3n2)cc1", "< 5 µM"),
    ("CCOc1nc(NCc2ccc(S(N)(=O)=O)cc2)nc2ccc(-c3ccc(N4CCC(O)C4=O)cc3)nc12 (stereo not shown)", "> 25 µM"),
    ("CS(=O)(=O)CCNc1nc(NCc2ccc(S(N)(=O)=O)cc2)nc2ccc(-c3ccc(F)c(NS(=O)(=O)C4CC4)c3)nc12", "> 25 µM"),
]

// batch mode: one CC50 at 3 days value per listed entry
1. NS(=O)(=O)c1ccc(CNc2nc(NCC(F)(F)F)c3nc(-c4ccnnc4)ccc3n2)cc1
2. CCOc1nc(NCc2ccc(S(N)(=O)=O)cc2)nc2ccc(-c3ccc(NC(=O)[C@@H](N)[C@@H](C)O)cc3)nc12

1: > 25 µM; 2: < 5 µM
